- study_target: 3-hydroxy-3-methylglutaryl-coenzyme A reductase (Homo sapiens)
- test_protocol: Inhibition of the incorporation of sodium [14C]acetate into cholesterol in HEP G2 cells.
Below, each entry is listed alongside its reported pIC50.
# pIC50 is unitless: minus log10 of the molar concentration; print number only

Solved entries:
Per the records, this molecule ( CC(C)c1c(O)c(C(C)C)c(C(C)C)c(OCC(O)C[C@@H](O)CC(=O)[O-])c1-c1ccc(F)cc1.[Na+] (stereo not given in full) ) has pIC50 equal to 8.25

Per the records, this molecule ( CCC(C)(C)OC(=O)C(c1cc(C)cc(C)c1OCC(O)C[C@@H](O)CC(=O)O)C1CCCCC1 (stereo in doubt; 11r) ) has pIC50 equal to 4.92

Continuing:
Per the records, this molecule ( CC(C)c1c(OCC(O)C[C@@H](O)CC(=O)O)c(C(c2ccc(F)cc2)c2ccc(F)cc2)cc2ccccc12 (stereo not given in full) ) has pIC50 equal to 5.46

* * *

- study_target: 3-hydroxy-3-methylglutaryl-coenzyme A reductase (Homo sapiens, UniProt P04035)
- Sequence (P04035 whole entry): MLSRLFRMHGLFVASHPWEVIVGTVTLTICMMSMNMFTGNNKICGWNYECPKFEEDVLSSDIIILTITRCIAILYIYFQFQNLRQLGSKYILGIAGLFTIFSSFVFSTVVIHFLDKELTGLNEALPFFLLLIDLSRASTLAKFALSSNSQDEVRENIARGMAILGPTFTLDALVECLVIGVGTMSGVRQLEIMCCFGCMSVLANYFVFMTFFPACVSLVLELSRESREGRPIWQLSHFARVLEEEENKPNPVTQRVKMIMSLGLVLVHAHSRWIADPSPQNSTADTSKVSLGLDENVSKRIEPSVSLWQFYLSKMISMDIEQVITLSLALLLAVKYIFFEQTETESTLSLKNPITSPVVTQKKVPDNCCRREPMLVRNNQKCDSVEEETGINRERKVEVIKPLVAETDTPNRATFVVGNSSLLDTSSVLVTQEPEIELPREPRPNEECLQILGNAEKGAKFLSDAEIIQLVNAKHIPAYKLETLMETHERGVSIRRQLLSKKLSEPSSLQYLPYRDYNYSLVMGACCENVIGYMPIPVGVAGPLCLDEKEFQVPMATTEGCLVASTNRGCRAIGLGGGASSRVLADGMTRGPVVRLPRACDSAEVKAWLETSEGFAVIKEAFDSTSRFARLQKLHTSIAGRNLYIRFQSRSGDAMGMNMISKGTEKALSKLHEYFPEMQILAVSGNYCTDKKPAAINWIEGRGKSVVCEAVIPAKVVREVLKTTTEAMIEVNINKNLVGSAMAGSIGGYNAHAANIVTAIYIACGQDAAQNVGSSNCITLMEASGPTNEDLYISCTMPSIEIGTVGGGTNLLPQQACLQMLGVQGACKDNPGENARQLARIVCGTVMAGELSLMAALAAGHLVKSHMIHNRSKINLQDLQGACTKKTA
- test_protocol: Inhibition of the incorporation of sodium [14C]acetate into cholesterol in HEP G2 cells.
observed_property: pIC50
# pIC50 is unitless: minus log10 of the molar concentration; print number only

Solved entries:
Per the records, this compound ( CC(C)c1cc(-c2ccc(F)cc2)cc(-c2ccc(F)cc2)c1OCC(O)C[C@@H](O)CC(=O)[O-].[Na+] (stereo partly specified) ) has pIC50 equal to 7.26

Per the records, this compound ( Cc1cc(C)c(OCC2C[C@@H](O)CC(=O)O2)c(C(Cl)C2CCCCC2)c1 (stereo partly specified) ) has pIC50 equal to 5.19

Per the records, this compound ( CC(C)c1cc(-c2ccc(F)cc2)c(OCC(O)C[C@@H](O)CC(=O)[O-])c(C(C)C)c1.[Na+] (stereo partly specified) ) has pIC50 equal to 7.52

Per the records, this compound ( "CC(=O)[O-].CC(C)c1c(OC[C@@H](O)C[C@@H](O)CC(=O)[O-])c(C(C)C)c(C(C)C)c(O)c1-c1ccc(F)cc1.[Na+].[Na+]" ) has pIC50 equal to 8.39

Continuing:
Per the records, this compound ( Cc1c(OCC(O)C[C@@H](O)CC(=O)O)c(C(c2ccc(F)cc2)c2ccc(F)cc2)cc2ccccc12 (stereo partly specified) ) has pIC50 equal to 4.70

Per the records, this compound ( CC(C)c1cc(-c2ccccc2)cc(CC2CCCCC2)c1OCC(O)C[C@@H](O)CC(=O)O (stereo partly specified) ) has pIC50 equal to 7.00

* * *

- study_target: UniProt:P51639
- Sequence (P51639 whole entry): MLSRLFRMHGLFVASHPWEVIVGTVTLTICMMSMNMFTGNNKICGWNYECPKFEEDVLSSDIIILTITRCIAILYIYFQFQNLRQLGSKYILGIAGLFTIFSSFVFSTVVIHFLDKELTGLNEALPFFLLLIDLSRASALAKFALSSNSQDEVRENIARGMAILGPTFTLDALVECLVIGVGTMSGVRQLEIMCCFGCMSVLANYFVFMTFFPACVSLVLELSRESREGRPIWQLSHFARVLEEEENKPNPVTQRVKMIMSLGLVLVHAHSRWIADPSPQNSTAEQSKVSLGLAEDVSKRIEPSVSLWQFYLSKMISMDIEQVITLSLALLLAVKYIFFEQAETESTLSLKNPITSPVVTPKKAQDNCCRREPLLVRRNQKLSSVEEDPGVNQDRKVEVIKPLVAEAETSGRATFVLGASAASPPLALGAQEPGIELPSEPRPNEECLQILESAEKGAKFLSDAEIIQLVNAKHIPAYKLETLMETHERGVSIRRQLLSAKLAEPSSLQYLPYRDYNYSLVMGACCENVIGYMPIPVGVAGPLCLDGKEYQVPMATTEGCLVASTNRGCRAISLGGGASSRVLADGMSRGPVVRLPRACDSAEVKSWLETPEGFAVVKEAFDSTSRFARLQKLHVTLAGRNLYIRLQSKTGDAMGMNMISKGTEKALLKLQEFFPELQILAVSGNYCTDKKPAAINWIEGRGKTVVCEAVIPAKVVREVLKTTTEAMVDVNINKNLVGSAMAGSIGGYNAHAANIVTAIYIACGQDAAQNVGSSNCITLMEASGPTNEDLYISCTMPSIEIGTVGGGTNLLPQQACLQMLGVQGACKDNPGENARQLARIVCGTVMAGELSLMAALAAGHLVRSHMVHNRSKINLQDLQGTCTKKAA
- test_protocol: In vitro inhibition of HMG-CoA reductase in solubilized rat liver.
Below, each entry is listed alongside its reported log10 of IC50.
Note the log scale: values are log10 of IC50 expressed in nM.

Solved entries:
Per the records, this compound ( CC(C)c1cc(SC(C)(C)Sc2cc(-c3ccc(F)cc3)c(OCC(O)C[C@@H](O)CC(=O)[O-])c(C(C)C)c2)cc(-c2ccc(F)cc2)c1[O-].[Na+].[Na+] (some centres undefined) ) has log10 of IC50 equal to 1.48

Per the records, this compound ( Cc1cc(C)c(OCC(O)C[C@@H](O)CC(=O)O)c(C(C)c2ccc(F)cc2)c1 (some centres undefined) ) has log10 of IC50 equal to 2.20

Per the records, this compound ( O=C(O)C[C@H](O)CC(O)COc1c(Cl)cc(Cl)cc1CC1CCCCC1 (some centres undefined) ) has log10 of IC50 equal to 1.43

Per the records, this compound ( O=C(O)C[C@H](O)CC(O)COc1c(Cl)cc(Cl)cc1C(F)=C1CCCCC1 (some centres undefined) ) has log10 of IC50 equal to 1.98

Per the records, this compound ( O=C(O)C[C@H](O)CC(O)COc1c(Cl)cc(Cl)cc1C(=O)C1CCCCC1 (some centres undefined) ) has log10 of IC50 equal to 2.28

Per the records, this compound ( Cc1cc(Cl)cc(CCCOc2ccc(F)cc2)c1OCC(O)C[C@@H](O)CC(=O)O (some centres undefined) ) has log10 of IC50 equal to 1.90

Continuing:
Per the records, this compound ( O=C(O)C[C@H](O)CC(O)COc1cc(OCc2ccc(F)cc2)c(Cl)cc1Cl (some centres undefined) ) has log10 of IC50 equal to 2.41

Per the records, this compound ( O=C(O)C[C@H](O)CC(O)COc1c(Cl)cc(Cl)cc1C(c1ccc(F)cc1)c1ccc(F)cc1 (stereo in doubt; 11pp) ) has log10 of IC50 equal to 2.98

Per the records, this compound ( CC(C)c1c(OCC(O)C[C@@H](O)CC(=O)O)c(-c2ccc(F)cc2)nc2ccccc12 (some centres undefined) ) has log10 of IC50 equal to 1.70
